Measured values drawn from patent US11981675B1 for this set.

Tested on: HCT116 (colon)
Test: In vitro cytotoxic activity assay (MTT), HCT116
Format: cell-based
Settings: Homo sapiens, HCT-116; HCT116 (colon) cells, exposed for 96 hours; read-out: Cytotoxicity activity IC50 (50% inhibition of cell proliferation)
READOUT KIND: IC50

O=C1Nc2c(c(Nc3cccc(Cl)c3)nc3cc(C(=O)O)ccc23)C1=O: 1600 nM

###

System: HL60 (leukemia)
Assay: In vitro cytotoxic activity assay (MTT), HL60
Format: cell-based
Conditions: Homo sapiens, HL-60; HL60 (leukemia) cells, exposed for 96 hours; read-out: Cytotoxicity activity IC50 (50% inhibition of cell proliferation)
READOUT KIND: IC50 (µM)

O=C1Nc2c(c(Nc3cccc(Cl)c3)nc3cc(C(=O)O)ccc23)C1=O: 3.6
